- assayText: Selectivity index, ratio of CC50 for human THP1 cells to IC50 for Antileishmanial activity against luciferase-expressing Leishmania infantum (MHOM/MA/67/ITMAP-263) axenic amastigotes incubated for 72 hrs by resazurin based assay relative to control
- Assay type: toxicity
- assaySetup: in the assay text read “promastigotes” for “axenic amastigotes”, read-out: Ratio CC50/IC50
observable: selectivity ratio at 72 h
Answer with the value's number alone.

Exercise: Record request: selectivity ratio at 72 h value, item CCCCCCCCCCCCCCCCOP(=O)([O-])OCC[N+](C)(C)C [MILTEFOSINE]
Key: 1.3

----------
- System: Leishmania infantum
- assayText: Antileishmanial activity against luciferase-expressing Leishmania infantum (MHOM/MA/67/ITMAP-263) axenic amastigotes incubated for 72 hrs by resazurin based assay relative to control
- Assay type: functional, organism-based
- assaySetup: MHOM/MA/67/ITMAP-263, 72 h, in the assay text read “promastigotes” for “axenic amastigotes”
Below, each entry is listed alongside its reported pIC50.
Please report pIC50 as the negative decimal logarithm of the molar concentration, giving only the number.

compound | pIC50
NNc1ncnc2c(Nc3cccc(OCc4ccncc4)c3)ncnc12 | 5.50

Here is the next item to consider.
Exercise: Record request: pIC50 value, item CCCCCCCCCCCCCCCCOP(=O)([O-])OCC[N+](C)(C)C [MILTEFOSINE]
Key: 5.66

Each recorded value in this set is attributed to ChEMBL document CHEMBL5143753.
